Test: Oral bioavailability in Sprague-Dawley rat at 3 mg/kg
Format: ADME, organism-based
Details: in vivo
Field: bioavailability. Provide a value for each of the compounds that follow.
Give bare numbers, in %.

Illustrative cases are given below, each with its answer.
compound: COC[C@H](C)COCc1ccc([C@@]2(O)CCNC[C@@H]2c2noc(-c3ccccc3CCNC(C)=O)c2Br)cc1
display unit: %
bioavailability: 18
--
compound: CC(=O)NCCc1ccccc1-c1onc([C@H]2CNCC[C@]2(OCC(O)CO)c2ccc(F)c(F)c2)c1Br (stereo partly drawn)
display unit: %
bioavailability: 0

Next item in the queue.
Q: Quick one: bioavailability of CC(=O)NCCc1ccccc1-c1onc([C@H]2CNCC[C@]2(O)c2ccc(F)c(F)c2)c1Br ?
Result: 16
